Where do the numbers come from? From paper PMC10180065.

# assay explanation: Lipophilicity by RP-TLC
# Assay type: physicochemical
# Design: key: RM = log(1/Rf − 1), Rf = a/b
# experimental conditions: eluent AcCN: H2O at 30–70% v/v, 22 °C
Recorded Lipophilicity, RM, one value per entry.
Hey, just send me the number, nothing else.

These solved cases illustrate the format of a correct answer.
compound Cc1cc(O)n(C(N)=S)n1 , Lipophilicity, RM observed: 1.29

The reported Lipophilicity, RM of the compound CCc1cc(CC)n(C(N)=S)n1 was 2.51

Input NC(=S)n1nc(-c2ccccc2)cc1O . Output Lipophilicity, RM: 2.04

We next turn to a different compound, shown below.
The compound identified as Cc1cc(O)n(C(N)=S)n1.Cc1ccc(C(C)C)cc1.[Cl-].[Cl][Ru+] registered its Lipophilicity, RM at 1.64

---

Known IC50 of a selection of molecules
# Test system: HCC38
# assay explanation: MTT cytotoxicity, HCC38
# Assay type: cell-based, human
# experimental conditions: 48 h incubation, read-out: Cytotoxic effect, IC50
# Experimental: […] The cytotoxicity was tested by a standard MTT [3-(4,5-dimethylthiazol-2-yl)-2,5-diphenyltetrazolium bromide] […] The anticancer activity of the investigated compounds was evaluated in vitro on the basis of their ability to inhibit the proliferation of various cancer cells. […] Purple formazan absorbance was measured spectrophotometrically at 570 nm.

Worked examples follow.
Reported IC50 ( Cc1cc(C)n(C(N)=S)n1.Cc1ccc(C(C)C)cc1.F[P-](F)(F)(F)(F)F.[Cl-].[Ru+2] ) = > 200 µM

So, Cc1ccc(C(C)C)cc1.NC(=S)n1nc(-c2ccccc2)cc1O.[Cl-].[Cl][Ru+] ? Its IC50 was > 200 µM

***
Entry under test: Cc1cc(O)n(C(N)=S)n1.Cc1ccc(C(C)C)cc1.[Cl-].[Cl][Ru+] . Its IC50 was > 200 µM
